Measured Activity of individual entries
System: rhinovirus A1B
Protocol Summary: Antiviral activity against HRV1B infected in human HeLa cells assessed as inhibition of virus-induced cytopathicity at 0.8 ug/ml after 48 hrs
Type: functional, Human rhinovirus 1B
Parameters: scale not given: the % may be the effect or the level left

Compound	Activity
CC(=O)O[C@H]1[C@H](O[C@]2(C)CC[C@@H]3[C@H]([C@@H]4[C@H](C)CC[C@@H]42)C3(C)C)O[C@H](C)[C@H](O)[C@@H]1O	0%
C/C=C(\C)C(=O)O[C@H]1[C@H](O[C@]2(C)CC[C@@H]3[C@H]([C@@H]4[C@H](C)CC[C@@H]42)C3(C)C)O[C@H](C)[C@H](O)[C@@H]1O	0%
CCC(C)C(=O)O[C@H]1[C@H](O[C@]2(C)CC[C@@H]3[C@H]([C@@H]4[C@H](C)CC[C@@H]42)C3(C)C)O[C@H](C)[C@H](O)[C@@H]1O (stereo partly drawn)	0%

---

Below, each entry is listed with its recorded Activity.
Tested on: rhinovirus A1B
Protocol Summary: Antiviral activity against HRV1B infected in human HeLa cells assessed as inhibition of virus-induced cytopathicity at 0.8 ug/ml after 48 hrs
Type: functional, Human rhinovirus 1B
Set-up: scale not given: the % may be the effect or the level left
Readout Label: Activity (%)

Entry Smiles	Test Value
CC(C)C(=O)O[C@H]1[C@H](O[C@]2(C)CC[C@@H]3[C@H]([C@@H]4[C@H](C)CC[C@@H]42)C3(C)C)O[C@H](C)[C@H](O)[C@@H]1O	0
CC/C(C)=C\C(=O)O[C@H]1[C@H](O[C@]2(C)CC[C@@H]3[C@H]([C@@H]4[C@H](C)CC[C@@H]42)C3(C)C)O[C@H](C)[C@H](O)[C@@H]1O	0
C[C@@H]1CC[C@H]2[C@@H]1[C@H]1[C@@H](CC[C@@]2(C)O[C@@H]2O[C@H](C)[C@H](O)[C@H](O)[C@H]2O)C1(C)C	0

---

Protocol Summary: Cytotoxicity against golden hamster CER cells assessed as cell viability at 20 ug/mL after 48 hrs by neutral red assay
Assay type: cell-based, Mesocricetus auratus

Molecule	Activity
CC(C)C(=O)O[C@H]1[C@H](O[C@]2(C)CC[C@@H]3[C@H]([C@@H]4[C@H](C)CC[C@@H]42)C3(C)C)O[C@H](C)[C@H](O)[C@@H]1O	Non-toxic
C/C=C(\C)C(=O)O[C@H]1[C@H](O[C@]2(C)CC[C@@H]3[C@H]([C@@H]4[C@H](C)CC[C@@H]42)C3(C)C)O[C@H](C)[C@H](O)[C@@H]1O	Non-toxic
CCC(C)C(=O)O[C@H]1[C@H](O[C@]2(C)CC[C@@H]3[C@H]([C@@H]4[C@H](C)CC[C@@H]42)C3(C)C)O[C@H](C)[C@H](O)[C@@H]1O (stereo partly drawn)	Non-toxic

The measured values listed here are drawn from ChEMBL document CHEMBL1158912.
